- System: MS2 coat protein
- Test Details: apparent KD of MS2 coat protein; higher = weaker reporter binding
- Stated Conditions: Eterna round: R107; input ligand: theophylline 20 uM

Biopolymer Sequence	System Name	apparent KD of MS2 coat protein (nM)
UUGUAUAUGCGAAGGAGCGGGAAAUAUAUAUAUAUAAUCCUAACAUGAGGAUCACCCAUGUCCCAGGUAGGUCGCGCAUAUGUGG [12.G]	MS2 coat protein	65.6
UUUGAUAGGACAGAUACCAGCGUGUUGUUGAACAUGAGGAUCACCCAUGUAGUGAUCAAGCGCCCUUGGCAGCUGGUUUGUUAGG [7.M]	MS2 coat protein	240
ACAUGAGGAUCACCCAUGUAAAUAACGGAAGGAGCGUGCGAAAGCACAGGUAGGUCGCCGAUAUAAAUAUUGGGUAUUAUAUUAU [#28 Exclusion - Arginine A]	MS2 coat protein	47.1
CUCCUGGGAGCGGCCGCCACUGGAGGCCUUGCGCGACAUGAGGAUCACCCAUGUUGGCCCGGCCUCAGGACCGGGUUCGCGCGAG [Same State - Tryptophan B Attempt #2]	MS2 coat protein	12.3
AUCUCAUAGAGUGAUACCAGACUACAUGAGGAUCACCCAUGUUACAUUUAAAUAUCAUUUGUCCCUUGGCAGCACAUUAAGUACA [JR_Nu_ExcTheophyB_Sub019]	MS2 coat protein	33.2
AAAAUAAAAUAAAAGGUGGAAAUAAGGCGGCGAGGACCGGUACGGCCGCCACUCGCGUACAUGAGGAUCACCCAUGUCUGAAAAU [Same State - Tryptophan A (Freestyle 1)]	MS2 coat protein	28.2
UGACAUUGCUCAGAUACCAGACAUGAGCAUCAGCCAUGUGCCAACAAGUACAUAAUAAAUGUCCCUUGGCAGCUGAGCAAUGUCU [TheoBX 16 #MS2Left #Theo2 #AlternativeMS2]	MS2 coat protein	20.5
UUUUAACAUGAGGAUCACCCAUGUAAUGAUACCAGAGACGAAAGUCUCCCUUGGCAGCAUAUAUCAUUACUCAUAGGAAACUAUG [Theophylline A 6]	MS2 coat protein	23.5
AGCCGGAUUACGGCCGCCACUGUAGACGUGACGAAAGUCGCGUCAACAUGAGGAUCACCCAUGUACAGGACCGGGUGGUCGGGCG [Omei Tryp B SS A v5]	MS2 coat protein	247
ACACAAUACAUGAGGAUCACCCAUGUAAAACGAGGACCGGUACGGCCGCCACUCGAAUACAGGAAACCUCGGAAUAUUAAGUGAA [JR_ExcTryptA_Sub001]	MS2 coat protein	64.1
UGGUACUAGGCGGCCGCCACUGGGAGAUACAUGAGGAUCACCCAUGUUUAAUGCCGAGAGGCAACUAGGACCGGGCCUAGUACAU	MS2 coat protein	133
UCGUGUAUUUCGGAUACCAGUGAAAUCGAUACAUGAGGAUCACCCAUGUGAGAGGAUGUACACCCUUGGCAGCUGUCUGUAUCUG [cxezmullin]	MS2 coat protein	20.2
AUAUUUAACGGAAGGAGCGCGGAAUAAUAAGUGGGUAAACAUGAGGAUCACCCAUGUAAACCGCAGGUAGGUCGCCGAAUAAUAA [AstrosEXyARgB#4]	MS2 coat protein	115
UAUCCACAUGAGGAUCACCCAUGUAGGGAAGGAGCGGUGAUUUCACCAGGUAGGUCGCCUUACUGAGGAGAGCCGGUGGAAUCGU [Exclusion - Arginine A (Freestyle 31)]	MS2 coat protein	31.9
AGCCUCAUACAUGAGGAACACCCAUGUGAUACCAGUCAGGAAACUGACCCUUGGCAGCGCAUGAGGAUCACCCAUGCGCGAGGCA [Omei Theo A Exc A v3]	MS2 coat protein	78.2
AGCCGCGUUCUUUCUUUCUUUCUAGCGGCACGAGGACCGGUACGGCCGCCACUCGCCCACAUGAGGAUCACCCAUGUAGUGGGUG [The One Ring #2]	MS2 coat protein	27.7
CACAUGAGGAUCACCCAUGUCUGAACUGAAGGAGCGCUAAACAAGGCAGGUAGGUCGCGGAAUUUUGUGUGCAUAUGCACACGGG [9.R]	MS2 coat protein	32.7
UCUUGAGUUUCGGAUACCAGUGUUGUCGAUACAUGAGGAUCACCCAUGUUAGAGGAUGUACACCCUUGGCAGCCGGGUGUGGCGG [tftmullin]	MS2 coat protein	14.7
CUUGUGGUCGGAAGGAGCGCGAUUACAUAACAUGAGGAUCACCCAUGUAAGAAAUUAUUCAUGCAGGUAGGUCGCCGGUCGUGGG [Same State Arginine B GF10]	MS2 coat protein	29.6
AAAAUAUACGGAAGGAGCGUGUAAGAUUAAGAACAUGAGGAUCACCCAUGUUUUAAGGGAACACAGGUAGGUCGCCGUAUAUAAA [11.N]	MS2 coat protein	11.6
AGCUCGCAUCCUCAAGCGUCAAAGACGCGUCGAGGACCGGUACGGCCGCCACUCGACCUGAGGAACACCCAGGUCCUCGCGAGCA [TrypAX 7 #SwitchBubble #AlternativeMS2 #MS2Late #CuTurnoff]	MS2 coat protein	40.2
CUGGACAUGAGGAUCACCCAUGUAAAUCCUCGAGGACCGGUACGGCCGCCACUCGAACGAGUGGCGCGCGAGCGCGCGCUCGCGC [aJa]	MS2 coat protein	80.3
CGGCUCAUAAUGGAUACCAGUCCAGCAUAGAAACCUUGACACAUGAGGAUCACCCAUGUUGACCCUUGGCAGCCAUUGAUCAUAC [theeternabot_exclusion_MS2_Theo_B_28]	MS2 coat protein	36.5

###

- Test system: MS2 coat protein
- Test Details: apparent KD of MS2 coat protein; higher = weaker reporter binding
- Stated Conditions: Eterna round: R107; input ligand: theophylline 20 uM
Binary call on apparent KD of MS2 coat protein: True from 20 nM upward, False beneath that.

Biopolymer Sequence	Classification
AAUUCCGGGUCGGCCGCCACUGAUAUGGCGAGUCCUCGAACUUACAUGAGGAUCACCCAUGUAAACAGGACCGGGACCGCAUGGG [Exclusion Tryptophan B GF 23]	True
AACAUGAGGAUCACCCAUGUGUCCUCGAAACGAGGACCGGUACGGCCGCCACUCGAAAUAAGCUGUUGACGAAAAGUCAGCAGCA [Mat - Exclusion - Trytophan A - D20]	True
ACCUACACGGAGACGUGUAGGAGUAAUGAUACCAGCAUGGAGACAUGCCCUUGGCAGCGUUACAUGAGGAUCACCCAUGUAGGUU [ETHA #4]	True
UCAUGCAGGUCGGCCGCCACUACACACAUGAGGAUCACCCAUGUAGUUACUGGGUGAAGUGGCAGUAGGACCGGGACCUGCAUAC [Brourdmod09]	True
ACGACGCAUAGUGAUACCAGCACAACAUGAGGAUCACCCAUGUCACUUAUGUAGUAAUAAUGCCCUUGGCAGCACUAUGCGUCAG [SSTheo B #1]	True
AUCAUGGCCAUCGAUACCAGCUACAUGAGGAUCACCCAUGUAAACGGCCCGGUGAGAUGUAGCCCUUGGCAGCGAAGGGUCGAGG [Inenenatti]	True
CCUAUGCAGUCGGCCGCCACUGAGUCCUCAAUAAUAAAUUAAUAUACAUGAGGAUCACCCAUGUACAGGACCGGGACUGUAUAGG [Ex Tryptophan B 13]	True
ACAAUAUUGAGUUUGUCUCAAGUUUCAGAAGGAGCGUGAGGAAUCACAGGUAGGUCGCUGAUAACAUGAGGAUCACCCAUGUAUU [JR_SSArginiA_Sub005]	True
UGUCACUGUUUGGUUCAAUGAAGAAGAAUUCGAGGACCGGUACGGCCGCCACUCGCUAUGCAACAUGAGGAUCACCCAUGUAAAA [theeternabot_exclusion_MS2_Trp_A_31]	False
UGUAUGGACUGAAGGAGCGGGAAAAUAACCUGAGGAUCACCCAGGUAAAAGGCGAAAGCCACCCAGGUAGGUCGCAGUCCAUACU	False
UAUUAUAACCGAAGGAGCGGGAAAGAUGAUUUUUAAUAUUAACAUGAGGAUCACCCAUGUACCCAGGUAGGUCGCGGAUAUUAUU [Default title]	True
GGCUCCAGCCGAAGGAGCGCUAGAAGGUGACAUGAGGAUCACCCAUGUGUGUGAUGUGGCUAGCAGGUAGGUCGCGGAGGAGCUU [Exclusion - Arginine B (Freestyle 19)]	True
AAAUAAAUACAUGAGGAUCACCCAUGUGAAGGAGCGCCCGUUAGGGCAGGUAGGUCGCACAUGAACUCCAAGCGAAAGAAAUAAU [ArgEX 16 #OpenEnded]	True
AGGAACAUGAGGAUCACCCAUGUAAGCGAUACCAGUGAUAUGUUGCGCCCUUGGCAGCGCAAGUGUGUGUGAAAGAUGUAAGAUU [Eclusion - Theophylline A / A]	True
AGGUACAGCAGGUGAUUCUGGCUGUACCAACGAGGACCGGUACGGCCGCCACUCGAAUAAACAUGAGGAUCACCCAUGUACAAAU [T''-M-T'-T-MS2 - Design 7]	True
AGCCCUGUGCUAGAUACCAGCUACAUGAGGAUCACCCAUGUGCGUCAGAAAUGACUGUGUAGCCCUUGGCAGCUAAAUGCAUGUA [Exclusion - Theophylline B (Freestyle 7)]	False
AAACUGAUCUUCAGGAGUCACUAUAUCUCCCGAGGACCGGUACGGCCGCCACUCGAACGUUUACAUGAGGAUCACCCAUGUGACU [theeternabot_exclusion_MS2_Trp_A_4]	False
AGCGUGCAUCGGAAAACGAUGUACGCAAAUCGAGGACCGGUACGGCCGCCACUCGUCCUCAACAUGAGGAUCACCCAUGUAAUAA [Mat - Exclusion - Trytophan A - D10]	True
ACAUGAGGAUCACCCAUGUUAUUUACCGAAGGAGCGGGUAUAUACCCAGGUAGGUCGCGGACAACAUGAGGAUCACCCACAUGAG [AstrosSSArgA#21]	True
UGCUACAUGAGGAUCACCCAUGUGGGUGAUACCAGCAUUCGUUAAUGCCCUUGGCAGCGCAGCCGAACCAUUCAUUCGGCAGAUC [Laxeor]	True
UCUCAAGGCCGCUCGGUGCUCCCUGGUGAUACCAGCCAUAUAUCCGGCCCUUGGCAGCACAUGAGGAUCACCCAUGUAGCAGGCG [Sorimaat]	True
CCGCACAUGAGGAUCACCCAUGUCAGGGAUACCAGCCCAGACAUGGGCCCUUGGCAGCCCUGUAGCUGACGAAAGUCAGCAGCGG [Omei Theo A SS A v1]	True
ACAUGAGGAUCACCCAUGUACAUGAGGGAAGGAGCGGUACAUGUACCAGGUAGGUCGCCCAACAGCAUCAGCCAUGUACAUCAGC [ggvmullin]	True
